ASSAY TARGET: Integrin alpha-IIb/beta-3 (Canis lupus familiaris)
TEST PROTOCOL: Inhibition of 125I-fibrinogen binding to alpha IIb beta-3 integrin as inhibition of activated platelets
Kindly supply the reported pIC50 values for the records listed here.
One number for each entry, as −log10 of the molar value.

Recorded results for 2 molecules are shown here.
In [3]: df
Out[3]:
                              line_notation  measurement
0  CC(C)[C@H]1NC(=O)c2cc(cc(NC(=O)CCCCCNC(=O)c3ccc(NN)nc3)c2)CNC(=O)[C@H](CC(=O)O)NC(=O)CNC(=O)[C@H](CCCN=C(N)N)N(C)C1=O         8.10
1  CC(C)[C@H]1NC(=O)c2cc(cc(NC(=O)CCCCCN)c2)CNC(=O)[C@H](CC(=O)O)NC(=O)CNC(=O)[C@H](CCCN=C(N)N)N(C)C1=O         8.30

# input for lookup
Answer with reported pIC50 of `CN1C(=O)[C@@H](CCCCNC(=O)c2ccc(NNC(=O)OC(C)(C)C)nc2)NC(=O)c2cccc(c2)CNC(=O)[C@H](CC(=O)O)NC(=O)CNC(=O)[C@@H]1CCCN=C(N)N` 7.80
